Each recorded value in this set is attributed to patent US20250368745A1.

Target: T1, human IL-18BP (interleukin-18 binding protein, isoform A) (human, UniProt O95998 31-194)
T1 construct: cell assays used Sino Biological 10357-H08H; PBMC assay 1 relies on endogenous IL-18BP; UniProt number is printed as 095998; also called hIL-18BP
T1 sequence: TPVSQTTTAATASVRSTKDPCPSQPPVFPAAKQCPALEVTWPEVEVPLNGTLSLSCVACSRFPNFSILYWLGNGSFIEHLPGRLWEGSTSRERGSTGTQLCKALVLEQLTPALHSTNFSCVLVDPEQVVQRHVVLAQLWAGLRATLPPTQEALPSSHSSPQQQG
Assay: BLI single-concentration screen, apparent KD
Measured Kd, listed per entry.
The reply should contain only the number, in nM.

Sample records with Kd:
BINDER	READOUT UNIT	Kd
SA301a heavy chain variant N33bL, C34S (antibody, human IgG1, V domains shown, library variant, human IgG1/kappa, from supernatant) VH: QVQLQESGPGLVKPSQTLSLTCTVSGYSITSDYLSHWIRQPPGKGLEWIGYIHYSGSTNYNPSLKSRVTISRDTSKNQFSLKLSSVTAADTAVYYCARNYGSIYVNYFDYWGQGTLVTVSS VL: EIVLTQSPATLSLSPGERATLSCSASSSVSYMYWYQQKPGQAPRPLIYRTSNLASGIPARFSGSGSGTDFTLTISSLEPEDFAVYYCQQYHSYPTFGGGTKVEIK	nM	0.8
SA302a heavy chain variant N33bM, C34A (antibody, human IgG1, V domains shown, library variant, human IgG1/kappa, from supernatant) VH: QVQLQESGPGLVKPSQTLSLTCTVSGYSITSDYMAHWIRQPPGKGLEWIGYIHYSGSTNYNPSLKSRVTISRDTSKNQFSLKLSSVTAADTAVYYCARNYGSIYVNYFDYWGQGTLVTVSS VL: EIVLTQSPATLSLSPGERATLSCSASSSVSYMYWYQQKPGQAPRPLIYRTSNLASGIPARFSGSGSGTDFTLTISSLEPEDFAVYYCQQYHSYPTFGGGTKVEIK	nM	0.9

Attention now shifts to the item below.
**Query** Given the binder SA302a heavy chain variant N33bT, C34A (antibody, human IgG1, V domains shown, library variant, human IgG1/kappa, from supernatant) VH: QVQLQESGPGLVKPSQTLSLTCTVSGYSITSDYTAHWIRQPPGKGLEWIGYIHYSGSTNYNPSLKSRVTISRDTSKNQFSLKLSSVTAADTAVYYCARNYGSIYVNYFDYWGQGTLVTVSS VL: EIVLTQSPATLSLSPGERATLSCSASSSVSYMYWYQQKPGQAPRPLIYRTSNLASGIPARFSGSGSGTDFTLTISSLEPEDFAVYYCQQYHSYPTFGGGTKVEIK , what is its reported Kd?
**Result** 0.1
